tested on: Plasmodium berghei; assay: Screen against P. berghei liver stage (PbLuc), transformed with Luciferase, at 10uM; format: functional, HepG2; conditions: tested at 10 uM
Hit rate of the full screen: of about 69,000 compounds, about 8,600 (12%) showed an effect of 50% or more. The list comes from a sample in which strong results are over-represented; it also holds close analogues and randomly drawn compounds.
quantity.name: INHIBITION (%)
Give the quantity in %, number only.

Q: Report INHIBITION for COc1ccc(-n2cc3[nH]c(=O)[nH]n3c2=O)cc1 please.
A: 3.68

* * *

test system: Plasmodium berghei; experiment: Screen against P. berghei liver stage (PbLuc), transformed with Luciferase, at 10uM; assay type: functional, HepG2; settings: tested at 10 uM
Screen size: about 69,000 compounds; about 8,600 (12%) showed an effect of 50% or more. For the sample, strong results were picked, then their nearest neighbours and some compounds at random.
# binarize INHIBITION: threshold 20% inclusive, high side T, low side F

Solved cases below.
{"compound": "Cc1ncccc1-c1cc2cccnc2n1CCCNC(=O)C(C)(C)C", "assigned.class": "T"}
{"compound": "Cc1ccc(CN2CCC(n3cc(CN4CCC(O)CC4)nn3)CC2)s1", "assigned.class": "F"}
{"compound": "CCN1CC(CN(C)c2cc(C)nc(N)n2)Oc2ccccc21 (stereo not given)", "assigned.class": "T"}
{"compound": "O=C(O)C1(Oc2cccc(F)c2)CCN(C2CCOCC2)CC1", "assigned.class": "F"}

Q: Assess whether reported INHIBITION for Cc1cnc(N2CCC3(CC2)CC3CN(C)Cc2cccnc2)nc1 (stereo not given) sits at 20% or higher.
A: T

Q: Has COCCNC(=O)Cn1c(-c2ccc(F)cc2)nc(C)c(CCO)c1=O a recorded INHIBITION greater than or equal to 20%?
A: F

Q: Reported INHIBITION at or above 20%? Cc1ccc(CN2CCC3(CC2)CC3CN(C)Cc2cccnc2)o1 (stereo not given)
A: F

Q: Hello, I need to know if Cc1ncsc1CCN(C)C(=O)CCc1nc2cccnc2n1C has measured INHIBITION not below 20%. Thanks!
A: F

Q: Confirm if INHIBITION reported for the compound c1ccc(-n2cc(CNCC3CCCN3c3cccnn3)nn2)cc1 (stereo not given) is 20% or above.
A: F

Q: State whether the measured INHIBITION reaches 20%, counting equality as reaching it, for CC(C)N1[C@H](Cn2cccn2)C[C@@H]2CN(C3CCOCC3)CC[C@@H]21
A: T

Q: Given the entry Cc1nc(C)n(CC2CCCN(Cc3nnc(C4CC4)o3)C2)n1 (stereo not given) , answer whether its INHIBITION meets or surpasses 20%.
A: F

* * *

tested on: Plasmodium berghei; test: Screen against P. berghei liver stage (PbLuc), transformed with Luciferase, at 10uM; assay type: functional, HepG2; conditions: tested at 10 uM
The campaign covered roughly 69,000 compounds. About 8,600 (12%) showed an effect of 50% or more. The entries come from a sample that favours strong results as a whole.
// INHIBITION lookup, one value per entry
Enter your answer as a number in %; do not include the unit.

Q: Item under review: COc1c(CNC2CCc3cc(Cl)ccc32)c(C)nn1C (stereo not drawn) . Reported INHIBITION?
A: 59

Q: Need INHIBITION, item COc1c(CNC2CCc3cc(C)ccc32)c(C)nn1C (stereo not drawn)
A: 21.5

Q: Entry CC(=O)Nc1nc2c(s1)C1(CCCC1)Nc1ccccc1S2 has what INHIBITION?
A: 41.2

Q: Consider the molecule shown here: O=C(C1CC=CC1)N1CCc2c(COCc3ccncc3)cncc2C1 What is its recorded INHIBITION?
A: 6.8

Q: Requested field: INHIBITION. Item: COc1c(CNC2CCOc3c(F)cccc32)c(C)nn1C (stereo not drawn)
A: 20

Q: Returns the measured INHIBITION for the input molecule. Input: c1cc(OCc2ccc3c(c2)OCO3)ccc1CNC1CC1
A: 73.4

Origin of measurements: ChEMBL document CHEMBL4513216
